Molecular target: PSMD7 (UniProt P51665)
Sequence (P51665 whole entry, the tested form may be a part): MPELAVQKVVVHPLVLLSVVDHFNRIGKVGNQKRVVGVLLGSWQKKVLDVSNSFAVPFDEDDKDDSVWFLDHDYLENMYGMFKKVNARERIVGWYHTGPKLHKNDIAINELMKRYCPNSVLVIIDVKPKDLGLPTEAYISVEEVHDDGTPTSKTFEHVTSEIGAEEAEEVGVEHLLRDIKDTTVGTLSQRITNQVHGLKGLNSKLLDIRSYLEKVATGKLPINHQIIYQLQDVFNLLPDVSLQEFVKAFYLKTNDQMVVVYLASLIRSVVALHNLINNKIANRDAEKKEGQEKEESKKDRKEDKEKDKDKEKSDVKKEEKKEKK
Assay: log2 ratio of Biotin-Ahx-Ub-VS probe labelling (fragment/DMSO); higher = less target engagement (more negative = stronger competition), active = hit call of the paper (q ≤ 0.05, log2 ratio ≤ -1)
Conditions: compound concentration: 200 uM; treatment time: 3 h
Class 1.0: log2 ratio of Biotin-Ahx-Ub-VS probe labelling at least -0.1. Class 0.0: log2 ratio of Biotin-Ahx-Ub-VS probe labelling below -0.1.

molecule=Cc1ccc(CN(CCO)C(=O)CCl)cc1 experimental_target="PSMD7 (UniProt P51665)" label_class=0.0
molecule="NC(=O)C1CCCN(C(=O)CCl)C1 (stereo not given)" experimental_target="PSMD7 (UniProt P51665)" label_class=0.0
molecule=N#Cc1cnn(-c2ccccc2)c1NC(=O)CCl experimental_target="PSMD7 (UniProt P51665)" label_class=0.0
molecule="O=C(CCl)N1CCC(c2ccn[nH]2)C1 (stereo not given)" experimental_target="PSMD7 (UniProt P51665)" label_class=0.0
molecule=O=C(CCl)N1CC2(CCOCC2)C1 experimental_target="PSMD7 (UniProt P51665)" label_class=1.0
molecule=O=C(CCl)NCCc1cccc2ccccc12 experimental_target="PSMD7 (UniProt P51665)" label_class=1.0
molecule="CC(=O)C1CCCCN1C(=O)CCl (stereo not given)" experimental_target="PSMD7 (UniProt P51665)" label_class=1.0
molecule=O=C(CCl)N(Cc1ccsc1)C1CC1 experimental_target="PSMD7 (UniProt P51665)" label_class=0.0
molecule=Cl.Cn1c(CNC(=O)CCl)nc2cccnc21 experimental_target="PSMD7 (UniProt P51665)" label_class=1.0
molecule=COc1ccc(CN(C)C(=O)CCl)cc1 experimental_target="PSMD7 (UniProt P51665)" label_class=0.0
molecule=Cl.O=C(CCl)N1CCc2ncncc2C1 experimental_target="PSMD7 (UniProt P51665)" label_class=1.0
molecule=Cc1conc1C1CN(C(=O)CCl)C1 experimental_target="PSMD7 (UniProt P51665)" label_class=0.0
molecule=Cl.O=C(CCl)N1CC(c2ccc(Br)cn2)C1 experimental_target="PSMD7 (UniProt P51665)" label_class=0.0
molecule=O=C(CCl)Nc1cccc(NC(=O)c2ccccc2)c1 experimental_target="PSMD7 (UniProt P51665)" label_class=1.0
molecule=N#Cc1ccc(CNC(=O)CCl)cc1 experimental_target="PSMD7 (UniProt P51665)" label_class=0.0
molecule=Cc1ccc(C(=O)NCCNC(=O)CCl)cc1 experimental_target="PSMD7 (UniProt P51665)" label_class=0.0
molecule=CCCn1nccc1NC(=O)CCl experimental_target="PSMD7 (UniProt P51665)" label_class=0.0
molecule="CC(NC(=O)CCl)c1cc2n(n1)CCCC2.Cl (stereo not given)" experimental_target="PSMD7 (UniProt P51665)" label_class=1.0
molecule=O=C(CCl)Nc1cc2c(cc1Cl)OCCCO2 experimental_target="PSMD7 (UniProt P51665)" label_class=1.0
molecule="CC1CCc2onc(CNC(=O)CCl)c2C1 (stereo not given)" experimental_target="PSMD7 (UniProt P51665)" label_class=1.0

###

Biological target: BAP1 (UniProt Q92560)
Sequence (Q92560 whole entry, the tested form may be a part): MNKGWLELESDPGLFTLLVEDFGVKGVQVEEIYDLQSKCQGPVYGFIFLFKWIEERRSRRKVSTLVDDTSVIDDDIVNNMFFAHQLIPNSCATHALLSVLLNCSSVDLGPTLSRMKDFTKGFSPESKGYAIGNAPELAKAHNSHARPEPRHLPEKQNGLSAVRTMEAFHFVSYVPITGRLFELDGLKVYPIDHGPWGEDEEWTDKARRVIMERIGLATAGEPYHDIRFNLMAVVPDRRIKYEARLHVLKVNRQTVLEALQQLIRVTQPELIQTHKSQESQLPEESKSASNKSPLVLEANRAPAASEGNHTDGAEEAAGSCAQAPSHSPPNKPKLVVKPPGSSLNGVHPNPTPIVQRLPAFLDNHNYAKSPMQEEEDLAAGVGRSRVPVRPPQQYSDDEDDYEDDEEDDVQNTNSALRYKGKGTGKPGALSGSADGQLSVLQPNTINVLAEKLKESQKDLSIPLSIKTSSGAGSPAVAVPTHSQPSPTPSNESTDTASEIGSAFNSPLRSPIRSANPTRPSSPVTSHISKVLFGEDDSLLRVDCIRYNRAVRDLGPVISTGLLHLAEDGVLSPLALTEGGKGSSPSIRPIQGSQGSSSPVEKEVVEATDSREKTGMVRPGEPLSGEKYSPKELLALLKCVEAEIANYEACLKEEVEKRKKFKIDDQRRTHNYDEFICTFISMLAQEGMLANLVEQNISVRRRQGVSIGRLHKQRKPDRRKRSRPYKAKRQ
Test: log2 ratio of Biotin-Ahx-Ub-VS probe labelling (fragment/DMSO); higher = less target engagement (more negative = stronger competition), active = hit call of the paper (q ≤ 0.05, log2 ratio ≤ -1)
Conditions: compound concentration: 200 uM; treatment time: 3 h
ENDPOINT_LABEL: log2 ratio of Biotin-Ahx-Ub-VS probe labelling

compound=CCc1c[nH]c(CNC(=O)CCl)n1.Cl endpoint_value=-0.464
compound=Cc1n[nH]c2c1CN(C(=O)CCl)CC2 endpoint_value=-1.1
compound=O=C(CCl)Nc1cc(Cl)ccc1C(=O)O endpoint_value=-0.0627
compound=O=C(CCl)NCc1ccc(N2CCOCC2)c(F)c1 endpoint_value=-2.54
compound=C[C@@H](NC(=O)CCl)c1cccc(C#N)c1 endpoint_value=-2.8
compound="Cc1cc(CC(C)NC(=O)CCl)n[nH]1 (stereo not given)" endpoint_value=-0.509
compound="O=C(CCl)N1CCCCCC1c1ncon1 (stereo not given)" endpoint_value=-0.409
compound=Cl.O=C(CN1CCN(C(=O)CCl)CC1)Nc1ccc(F)cc1 endpoint_value=-0.159
compound="O=C(CCl)N1CCOC(CCc2ccccc2)C1 (stereo not given)" endpoint_value=-1.1
compound=O=C(CCl)NCc1cccc(N2CCCC2=O)c1 endpoint_value=-3.09
compound=Cc1cccc(NC(=O)CCl)c1C endpoint_value=-3.21
compound="COc1ccccc1C(C)NC(=O)CCl (stereo not given)" endpoint_value=-2.35
compound="CC(NC(=O)CCl)c1ccc2[nH]ncc2c1 (stereo not given)" endpoint_value=-3.42
compound=Cc1nc(CN2CCCN(C(=O)CCl)CC2)no1.Cl endpoint_value=0.234
compound=O=C(CCl)N1CCN(C(=O)N2CCCCC2)CC1 endpoint_value=-1.46
compound=CN1C(=O)c2ccc(NC(=O)CCl)cc2C1=O endpoint_value=-3.58
compound="CN1c2ccccc2C(NC(=O)CCl)CS1(=O)=O (stereo not given)" endpoint_value=-2.33
compound="Cc1ccc(CC(NC(=O)CCl)c2ccccn2)cc1.Cl (stereo not given)" endpoint_value=-0.525
compound=CNC(=O)C1CCN(C(=O)CCl)CC1 endpoint_value=-0.309
compound=O=C(CCl)N1CCc2[nH]c3ccccc3c2C1 endpoint_value=-0.875
